B1: TPR 5TU (parent)
chain: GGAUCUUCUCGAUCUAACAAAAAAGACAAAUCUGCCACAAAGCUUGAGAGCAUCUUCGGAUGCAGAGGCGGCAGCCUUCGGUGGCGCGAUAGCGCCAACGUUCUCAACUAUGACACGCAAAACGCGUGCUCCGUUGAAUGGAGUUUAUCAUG

# Variants of: B1
# PROTOCOL_DETAILS: polymerase ribozyme fitness, log enrichment relative to wild type (log ratio); higher = more active; in vitro selection for triplet polymerase activity
Variants at the floor of the assay were thinned out.
PROPERTY: polymerase ribozyme fitness (log ratio)
# respond with the number and nothing more

Notebook: A28G U56A , polymerase ribozyme fitness (log ratio) read as -3.7

Notebook: A49U A73G G81C C85U , polymerase ribozyme fitness (log ratio) read as -2.64

Notebook: C87U G143U , polymerase ribozyme fitness (log ratio) read as -2.69

Notebook: U78G G94U , polymerase ribozyme fitness (log ratio) read as -3.47

Notebook: A89G G126U U148G , polymerase ribozyme fitness (log ratio) read as -4.06

Notebook: C72U C93G A106G A121U , polymerase ribozyme fitness (log ratio) read as -2.98

Notebook: U7G C95U , polymerase ribozyme fitness (log ratio) read as -2.93

Notebook: C32U U33A U151A , polymerase ribozyme fitness (log ratio) read as -4.18

Notebook: C54G C95A , polymerase ribozyme fitness (log ratio) read as -1.74

Notebook: C51U G92U C99A A106G C123G C129U , polymerase ribozyme fitness (log ratio) read as -2.74
